These measurements were taken from the supplement of paper PMC10307832.

- Tested on: HCC-78
- ASSAY_REMARKS: relative viability (nuclei count vs DMSO), 5 days (fraction); higher = more cells survive
- REPORTED_CONDITIONS: first compound 20 µM
Collected relative viability values appear next to each entry.
Hey, just send me the number, nothing else.

Use these answered entries as a reference point.
MOLECULE | STUDY_SYSTEM | relative viability
Cc1csc(=NC2CCCCC2)n1/N=C/c1ccc(O)c(O)c1O [MIM1] + Cc1nc(Nc2ncc(C(=O)Nc3c(C)cccc3Cl)s2)cc(N2CCN(CCO)CC2)n1 [Dasatinib] (partner 0.075 µM) | HCC-78 | 0.487
Cc1csc(=NC2CCCCC2)n1/N=C/c1ccc(O)c(O)c1O [MIM1] + CC(=O)Nc1cccc(-n2c(=O)n(C3CC3)c(=O)c3c(Nc4ccc(I)cc4F)n(C)c(=O)c(C)c32)c1 [Trametinib] (partner 0.02 µM) | HCC-78 | 1.15

For the molecule Cc1csc(=NC2CCCCC2)n1/N=C/c1ccc(O)c(O)c1O [MIM1] + COc1cccc2cc(-c3nc([C@H]4CC[C@H](C(=O)O)CC4)n4ncnc(N)c34)[nH]c12 [OSI-027] (partner 0.5 µM) , what relative viability is on record? 0.468

What do we get for Cc1csc(=NC2CCCCC2)n1/N=C/c1ccc(O)c(O)c1O [MIM1] + CC1(C)CCC(c2ccc(Cl)cc2)=C(CN2CCN(c3ccc(C(=O)NS(=O)(=O)c4ccc(N[C@H](CCN5CCOCC5)CSc5ccccc5)c(S(=O)(=O)C(F)(F)F)c4)cc3)CC2)C1 [Navitoclax] (partner 0.5 µM) ? 0.739

What do we get for Cc1csc(=NC2CCCCC2)n1/N=C/c1ccc(O)c(O)c1O [MIM1] + NC(=O)Nc1cc(-c2cccc(F)c2)sc1C(=O)N[C@H]1CCCNC1 [AZD7762] (partner 0.2 µM) ? 0.662

What do we get for Cc1csc(=NC2CCCCC2)n1/N=C/c1ccc(O)c(O)c1O [MIM1] + CC(=O)c1c(C)c2cnc(Nc3ccc(N4CCNCC4)cn3)nc2n(C2CCCC2)c1=O [Palbociclib] (partner 0.5 µM) ? 0.402
